B1: TPR 5TU (parent)
chain: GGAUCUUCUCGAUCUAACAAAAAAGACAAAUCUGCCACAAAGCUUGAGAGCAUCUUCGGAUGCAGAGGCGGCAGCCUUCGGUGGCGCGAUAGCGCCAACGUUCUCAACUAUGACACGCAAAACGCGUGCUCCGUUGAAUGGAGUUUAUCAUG

variants of: B1; test: polymerase ribozyme fitness, log enrichment relative to wild type (log ratio); higher = more active; in vitro selection for triplet polymerase activity
This sample holds only a part of the variants without activity.

MUTATION_LABEL	polymerase ribozyme fitness (log ratio)
A29U A52U U53A G80A C87A G128U U146C	≤ -4.2
A30U A52U U78A	≤ -4.2
U55A C79A A121C	≤ -4.2
G42C U45G U146C	≤ -4.2
C18U U61G A91C C93G C96U C99U A147U	≤ -4.2
G59A C118G U130A C132G G140A	≤ -4.2
A26U U31A U44G C75G U102G A120C	≤ -4.2
A37G A47C G100U G143A	≤ -4.2
C51U G81C C87U C116A G124A U134A U148A	≤ -4.2
A49U A66G G80C G84U U102G	≤ -4.2
C18G A23U A39G U55G A73U A89G A97U	≤ -4.2
G68A C93G C129A U130A	≤ -4.2
C14U A17G G83A C108U	≤ -4.2
C8A C14G U53C G58A G62C C85G	≤ -4.2
A3U U7C U56A G58C A60C G70C G88A G94A A115U	≤ -4.2
C43A G58C C76A U102C G141A	≤ -4.2
A16U A52G A64U U77A C87A G143C	≤ -4.2
A22G C36A G48A C95G G140C	≤ -4.2
C18U U90G	≤ -4.2
A30G U77C G84C G86U U102A C118U	≤ -4.2
U7A A26G U31C G50U A73C G86A U104G	≤ -4.2
A16C G25U U61G G88U C93U G136A A147C U148C	≤ -4.2
A21C C87G	-3.89
C38A C118U A120C G141A	-0.525
U77A G88A	≤ -4.2
U13A G84A G136U	-2.59
A3U G25U C27U C36A C87U C105G C118U G152C	≤ -4.2
U6G A16C A22U C51U C76U C85A C118U	-3.97
A28U A39C A98G G143U U144G U146G	≤ -4.2
G62A A66G G86U A121G U127C	≤ -4.2
C35A A39G G141U	≤ -4.2
G50U C125G	-0.442
A21U C118U A119G	-3.17

The measured values listed here are drawn from the RNAGym collection of RNA variant scans (doi:10.1073/pnas.2313332121).
